B1: glmS ribozyme (parent)
chain: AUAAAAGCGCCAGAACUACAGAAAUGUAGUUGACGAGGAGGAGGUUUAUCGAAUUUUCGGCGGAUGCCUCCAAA

- Variants of: B1
- METHOD: self-cleavage kobs at 40 uM GlcN6P; higher = faster cleavage; RNA array
- ASSAY CONDITIONS: with glucosamine-6-phosphate
Variants at the floor of the assay were thinned out.
OBSERVATION TYPE: self-cleavage kobs at 40 uM GlcN6P

Solved cases below.
{"columns": ["MUTANT LABEL", "self-cleavage kobs at 40 uM GlcN6P"],
 "data": [
  ["G38U A48C C71G", "< 1e-05 s⁻¹"],
  ["C8G G40A", "< 1e-05 s⁻¹"]
]}

Query: Could you tell me which self-cleavage kobs at 40 uM GlcN6P is on file for C50U G59C ?
Response: < 1e-05 s⁻¹

Query: Could you tell me which self-cleavage kobs at 40 uM GlcN6P is on file for G29A A36U ?
Response: < 1e-05 s⁻¹

Query: Could you tell me which self-cleavage kobs at 40 uM GlcN6P is on file for C10A A39U U49C ?
Response: < 1e-05 s⁻¹

Query: Could you tell me which self-cleavage kobs at 40 uM GlcN6P is on file for G9A A15G ?
Response: < 1e-05 s⁻¹

Query: Could you tell me which self-cleavage kobs at 40 uM GlcN6P is on file for A12C A39U ?
Response: 0.000239 s⁻¹
